Let's look at some Ki data for Substance-P receptor (Homo sapiens, UniProt P25103) that I collected from the literature.
Give the quantity in nM, number only.

The molecule "Cc1cc(F)ccc1[C@H]1C[C@@H](N2CCCC2)CCN1C(=O)N(C)Cc1cc(C(F)(F)F)cc(C(F)(F)F)c1" , when measured on Substance-P receptor (Homo sapiens, UniProt P25103), yielded Ki of 0.275

Form field, Ki with Substance-P receptor (Homo sapiens, UniProt P25103), item "O=C(c1cc(C(F)(F)F)cc(C(F)(F)F)c1)N1CCC2(CC1)NC(=O)N(CCc1c[nH]c3ccccc13)C2=O" : 575

Entry CO/N=C(\COCc1cc(C(F)(F)F)cc(C(F)(F)F)c1)C(CCN1CCN(CC(=O)N2CCOCC2)CC1)c1ccc(Cl)c(Cl)c1 (centres undefined) , tested on Substance-P receptor (Homo sapiens, UniProt P25103), has a reported Ki of 19

Substance-P receptor (Homo sapiens, UniProt P25103) Ki of FC(F)(F)c1cc(COCC(c2ccccc2)N2CCN(Cc3ccccn3)CC2)cc(C(F)(F)F)c1 (centres undefined) is 2
